assay: Cytotoxicity in TZM-GFP cells (XTT); format: cell-based; details: human, 72 hours exposure, XTT

| query.smiles | CC50 at 72 h |
| --- | --- |
| CN(C(=O)[C@H](Cc1ccccc1)NC(=O)CNC(=O)c1ccccc1)c1cccc(Cl)c1 | > 50 µM |
| CN(C(=O)[C@H](Cc1ccccc1)NC(=O)CN1C(=O)NC2(CCCCC2)C1=O)c1ccccc1 | > 100 µM |
| CN(C(=O)[C@H](Cc1ccccc1)NC(=O)Cc1ccc2ccccc2c1)c1cccc(F)c1 | < 50 µM |
| COc1ccc(N(C)C(=O)[C@H](Cc2ccccc2)NC(=O)CN2C(=O)NC3(CCCCC3)C2=O)cc1 | > 100 µM |
| CN(C(=O)[C@H](Cc1ccccc1)NC(=O)Cc1cccc2ccccc12)c1ccc(Cl)cc1 | < 50 µM |
| Cc1cn(CC(=O)N[C@@H](Cc2ccccc2)C(=O)N(C)c2cccc(F)c2)c(=O)[nH]c1=O | > 50 µM |
| CN(C(=O)[C@H](Cc1ccccc1)NC(=O)CNC(=O)c1ccccc1)c1ccc(F)cc1 | > 50 µM |
| Cc1ccc(N(C)C(=O)[C@H](Cc2ccccc2)NC(=O)CN2C(=O)NC3(CCCCC3)C2=O)cc1 | > 100 µM |

* * *

# Lookup of reported CC50 at 72 h keyed by entry
test: Cytotoxicity in TZM-GFP cells (XTT); assay type: cell-based; conditions: human, 72 hours exposure, XTT

| compound | CC50 at 72 h |
| --- | --- |
| CN(C(=O)[C@H](Cc1ccccc1)NC(=O)CNC(=O)c1ccccc1)c1cccc(Br)c1 | > 50 µM |
| Cc1ccc(N(C)C(=O)[C@H](Cc2ccccc2)NC(=O)Cn2cc(C)c(=O)[nH]c2=O)cc1 | > 50 µM |
| CN(C(=O)[C@H](Cc1ccccc1)NC(=O)Cc1ccc2ccccc2c1)c1ccccc1 | < 50 µM |
| Cc1ccc(C)c2c1NC(=O)C2CC(=O)N[C@@H](Cc1ccccc1)C(=O)N(C)c1ccc(F)cc1 (stereo partly shown) | > 100 µM |

* * *

# Lookup of reported CC50 at 72 h keyed by entry
Assay: Cytotoxicity in TZM-GFP cells (XTT)
Type: cell-based
Settings: human, 72 hours exposure, XTT
Experimental: The cytotoxicity of each compound was also determined in TZM-GFP cells. Cells were plated at a density of 1×10^4 cells per well in a 96-well plate and were continuously exposed to increasing concentrations of a compound for 72 hours. […] For the EC50 and CC50 dose responses, values were plotted in GraphPad Prism 5 and analyzed with the log (inhibitor) vs. normalized response-variable slope equation. Final values were calculated in each independent assay and the average values were determined. […]

| compound | CC50 at 72 h |
| --- | --- |
| Cc1cccc2c1NC(=O)C2CC(=O)N[C@@H](Cc1ccccc1)C(=O)N(C)c1ccc(Cl)cc1 (stereo partly shown) | ~50 µM |
| Cc1cccc2c1NC(=O)C2CC(=O)N[C@@H](Cc1ccccc1)C(=O)N(C)c1cccc(Cl)c1 (stereo partly shown) | > 100 µM |
| CN(C(=O)[C@H](Cc1ccccc1)NC(=O)CNC(=O)c1ccccc1)c1cccc(F)c1 | > 50 µM |
| Cc1cccc2c1NC(=O)C2CC(=O)N[C@@H](Cc1ccccc1)C(=O)N(C)c1cccc(F)c1 (stereo partly shown) | > 50 µM |
